Data origin: PubChem BioAssay (NCI)

- Test system: SNB-75 CNS
- Assay Procedure: NCI tumour cell line growth inhibition, 48 h
GI50 overview

[
  {
    "Structure": "COc1ccc2c(c1)c(-c1nc(-c3c[nH]c4ccncc34)cs1)cn2C",
    "Test Result": "1.52 µM"
  },
  {
    "Structure": "NC(=O)c1cc([N+](=O)[O-])c(Cl)c([N+](=O)[O-])c1Cl",
    "Test Result": "1.77 µM"
  },
  {
    "Structure": "COc1cc(/C=C/C(=O)/C=C/c2ccc(-n3ccnc3C)cc2)ccc1O",
    "Test Result": "9.61 µM"
  },
  {
    "Structure": "COC(=O)[C@H](Cc1cnc[nH]1)NC(=O)[C@@H](NC(=O)Nc1cc(C(F)(F)F)cc(C(F)(F)F)c1)C(C)C",
    "Test Result": "13.5 µM"
  }
]

We now examine a further molecule.
Entry under review: `CCN(CC)CCCNc1cc(OC)cc2nc3cc(Cl)ccc3nc12` . Reported GI50?
1.7 µM

* * *

- Test system: CCRF-CEM leukemia
- Assay Procedure: NCI tumour cell line growth inhibition, 48 h
Readout Type: log10 TGI (log10 of the value in µM)
Would you kindly interpret these values as log10 of TGI expressed in µM?

Study these solved cases before continuing.
[
  {
    "Compound": "COc1ccc2c(c1)c(-c1nc(-c3c[nH]c4ccncc34)cs1)cn2C",
    "log10 TGI": 0.56
  },
  {
    "Compound": "CNC(=O)c1c(NC(=O)c2ccc(C(C)(C)C)cc2)sc2c(CN(C)C)c(O)ccc12",
    "log10 TGI": 0.67
  }
]

Tell me reported log10 TGI for CC(=O)Nc1ccc2[nH]c(C(=O)N3CC(CCl)c4c3cc([N+](=O)[O-])c3ccccc43)cc2c1 (stereo not drawn) , tested with CCRF-CEM leukemia.
1.46

Same thing, different compound: `CCN(CC)CCCNc1cc(OC)cc2nc3cc(Cl)ccc3nc12`
1.05

Moving on to `Cc1cc(=O)n2nc(CCl)sc2n1`
1.61

Would you mind doing COC1=CC(=O)CC(C)C12Oc1c(Cl)c(OC)cc(OC)c1C2=O (stereo not drawn) as well?
1.99

// query: `Cc1ccc(S(=O)(=O)SC(C)(C)C)cc1`
1.59

Would you kindly repeat that for CCOC(=O)C(Cc1c[nH]c2cc([N+](=O)[O-])ccc12)NS(=O)(=O)c1ccc2ccccc2c1 (stereo not drawn) ?
1.69

Here is the next compound: `COc1cccc(CC(C)=C(c2ccc(OCCN3CCCCC3)cc2)c2ccc(OCCN3CCCCC3)cc2)c1`
0.67

// same read-out, input: COc1c2c(c3ccccc3c1O)C1C=CC2C1 (stereo not drawn)
1.99

* * *

Each entry below lists one item and its recorded TGI value.
- Tested on: SR leukemia
- Assay Procedure: NCI tumour cell line growth inhibition, 48 h

Some solved entries appear below for comparison.
[
  {
    "Molecule": "CCN(Cc1ccccc1)C1CCN(Cc2cc(Br)ccc2O)CC1",
    "Readout Type": "TGI",
    "Test Result": "> 100 µM"
  },
  {
    "Molecule": "CC(C)(C)OC(=O)CN1CCNCCN(CC(=O)OC(C)(C)C)CCNCC1",
    "Readout Type": "TGI",
    "Test Result": "> 100 µM"
  },
  {
    "Molecule": "CCCCCCCCCCCCCCCCCCn1cc[n+](C)c1",
    "Readout Type": "TGI",
    "Test Result": "> 100 µM"
  },
  {
    "Molecule": "Cc1ccc(C2=C(C#N)C(N)OC3=C2COc2ccccc23)cc1 (stereo unspecified)",
    "Readout Type": "TGI",
    "Test Result": "> 100 µM"
  },
  {
    "Molecule": "S=c1[nH]n2c(CCCCCCCCc3nnc4sc(=S)[nH]n34)nnc2s1",
    "Readout Type": "TGI",
    "Test Result": "> 100 µM"
  }
]

Consider the molecule OC(COC(c1ccccc1)(c1ccccc1)c1ccccc1)C(O)CC1SCCS1 (stereo unspecified) and give its measured TGI.
0.953 µM
